In this section, each of the compounds is paired with its reported mortality at 12 ppm.
tested on: Myzus persicae (Green Peach Aphid); assay: Example B7: Myzus persicae, intrinsic activity, sucrose solution under Parafilm; type: in vivo; details: 120 h, test rate 12 ppm, 5 days after infestation
OUTCOME_MEASURE: mortality at 12 ppm

COMPOUND: C[C@H](NC1=NS(C)(=O)=Nc2c(Br)cc(Br)cc21)c1nccnc1-c1cnccn1 (some centres unmarked)
OUTCOME_MEASURE: mortality at 12 ppm
OBSERVED: ≥ 80%
//
COMPOUND: C[C@H](NC1=NS(C)(=O)=Nc2c1cc(Cl)cc2C(F)(F)F)c1ncnn1-c1ccc(C#N)cn1 (some centres unmarked)
OUTCOME_MEASURE: mortality at 12 ppm
OBSERVED: ≥ 80%
//
COMPOUND: C[C@H](NC1=NS(C)(=O)=Nc2c(Cl)cc(C(F)(F)F)cc21)c1ncnn1-c1ncccn1 (some centres unmarked)
OUTCOME_MEASURE: mortality at 12 ppm
OBSERVED: ≥ 80%
//
COMPOUND: C[C@H](NC1=NS(C)(=O)=Nc2c(Br)cc(Br)cc21)c1ncnn1-c1ncccn1 (some centres unmarked) [P1]
OUTCOME_MEASURE: mortality at 12 ppm
OBSERVED: ≥ 80%
//
COMPOUND: C[C@H](NC1=NS(C)(=O)=Nc2c1cc(Cl)cc2C(F)(F)F)c1ncnn1-c1ncccn1 (some centres unmarked)
OUTCOME_MEASURE: mortality at 12 ppm
OBSERVED: ≥ 80%
